system: Klebsiella aerogenes DSM 30053; assay: fold change of Putrescine concentration vs plate DMSO controls (fold change (ratio)); higher = more amine produced, active = hit call of the paper (significant change in both replicates, either direction); settings: incubation time: 27 h, anaerobic, 37 °C
Where a name gives a salt, the structure may show the parent alone.
Kindly state fold change of Putrescine concentration for each of the entries shown.
Answers are plain numbers.

Some molecules with known fold change of Putrescine concentration results, for comparison:
Fill in reported fold change of Putrescine concentration for this entry: Cc1c(O)c(=O)ccn1C [Deferiprone] (20 µM)
1.01

Fill in reported fold change of Putrescine concentration for this entry: CC(C)(Oc1ccc(Cl)cc1)C(=O)O [Clofibric acid] (20 µM)
1.02

Fill in reported fold change of Putrescine concentration for this entry: O=C(O)c1cc(=O)[nH]c(=O)[nH]1 [Orotic acid] (20 µM)
1.01

Fill in reported fold change of Putrescine concentration for this entry: CC[C@H](c1ccc(O)cc1)[C@@H](CC)c1ccc(O)cc1 [Hexestrol] (20 µM)
1.01

// for each molecule below, give its fold change of Putrescine concentration
1. C[C@]12CC[C@@H]3c4ccc(O)cc4CC[C@H]3[C@@H]1C[C@@H](O)[C@@H]2O [Estriol] (20 µM)
2. CCN(CCO)CCCC(C)Nc1ccnc2cc(Cl)ccc12 (centres undefined) [Hydroxychloroquine sulfate] (20 µM)
3. C[C@]12CC[C@@H]3c4ccc(O)cc4CC[C@H]3[C@@H]1CC[C@@H]2O [Estradiol-17 beta] (20 µM)

1. 0.993
2. 1.04
3. 1

// for each molecule below, give its fold change of Putrescine concentration
1. CCOc1ccc(NC(C)=O)cc1 [Phenacetin] (20 µM)
2. CCCCCCCCc1c(CC)nc2ncnn2c1N (20 µM)

[1.02, 1.01]
